System: 3797 S. aureus (GISA)
Test: MIC, broth microdilution in Meuller-Hinton broth (NCCLS)
Format: cell-based, Staphylococus aureus
Details: glycopeptides-intermediate clinical isolate
Source text: Antibacterial activity in vitro was investigated by broth microdilution method in Meuller-Hinton broth as recommended by NCCLS. All strains tested were clinical isolates either sensitive or resistant to natural glycopeptides. Results are reported in the tables as MIC (minimal inhibitory concentration) in μg/ml. […]
parameter measured: MIC 3797 S. aureus (GISA) (µg/mL)

compound	test system	parameter measured	display unit	recorded result
CCCCc1ccc(CNCC(=O)NC2(C)CC(OC3C(Oc4c5cc6cc4Oc4ccc(cc4Cl)C(O)C(NC(=O)C(CC(C)C)NC)C(=O)NC(CC(N)=O)C(=O)NC6C(=O)NC4C(=O)NC(C(=O)NC(C(=O)NC)c6cc(O)cc(O)c6-c6cc4ccc6O)C(OC4CC(C)(N)C(O)C(C)O4)c4ccc(cc4)O5)OC(CO)C(O)C3O)OC(C)C2O)cc1 (stereo not drawn)	3797 S. aureus (GISA)	MIC 3797 S. aureus (GISA)	µg/mL	2
CCCCCCCCOc1ccc(CNCC(=O)NC2(C)CC(OC3C(Oc4c5cc6cc4Oc4ccc(cc4Cl)C(O)C(NC(=O)C(CC(C)C)NC)C(=O)NC(CC(N)=O)C(=O)NC6C(=O)NC4C(=O)NC(C(=O)NC(C(=O)O)c6cc(O)cc(O)c6-c6cc4ccc6O)C(OC4CC(C)(N)C(O)C(C)O4)c4ccc(cc4)O5)OC(CO)C(O)C3O)OC(C)C2O)cc1 (stereo not drawn)	3797 S. aureus (GISA)	MIC 3797 S. aureus (GISA)	µg/mL	4
CNC(CC(C)C)C(=O)NC1C(=O)NC(CC(N)=O)C(=O)NC2C(=O)NC3C(=O)NC(C(=O)NC(C(=O)O)c4cc(O)cc(O)c4-c4cc3ccc4O)C(OC3CC(C)(N)C(O)C(C)O3)c3ccc(cc3)Oc3cc2cc(c3OC2OC(CO)C(O)C(O)C2OC2CC(C)(NC(=O)C(N)CCCCN)C(O)C(C)O2)Oc2ccc(cc2Cl)C1O (stereo not drawn)	3797 S. aureus (GISA)	MIC 3797 S. aureus (GISA)	µg/mL	4
CNC(CC(C)C)C(=O)NC1C(=O)NC(CC(N)=O)C(=O)NC2C(=O)NC3C(=O)NC(C(=O)NC(C(=O)NC4C5CC6CC(C5)CC4C6)c4cc(O)cc(O)c4-c4cc3ccc4O)C(OC3CC(C)(N)C(O)C(C)O3)c3ccc(cc3)Oc3cc2cc(c3OC2OC(CO)C(O)C(O)C2OC2CC(C)(N)C(O)C(C)O2)Oc2ccc(cc2Cl)C1O (stereo not drawn)	3797 S. aureus (GISA)	MIC 3797 S. aureus (GISA)	µg/mL	1
CCCCN(CCCC)c1ccc(CNCC(=O)NC2(C)CC(OC3C(Oc4c5cc6cc4Oc4ccc(cc4Cl)C(O)C(NC(=O)C(CC(C)C)NC)C(=O)NC(CC(N)=O)C(=O)NC6C(=O)NC4C(=O)NC(C(=O)NC(C(=O)O)c6cc(O)cc(O)c6-c6cc4ccc6O)C(OC4CC(C)(N)C(O)C(C)O4)c4ccc(cc4)O5)OC(CO)C(O)C3O)OC(C)C2O)cc1 (stereo not drawn)	3797 S. aureus (GISA)	MIC 3797 S. aureus (GISA)	µg/mL	8
CCCCCCCCCCN(CCCCCCCCCC)CC(=O)NC1(C)CC(OC2C(Oc3c4cc5cc3Oc3ccc(cc3Cl)C(O)C(NC(=O)C(CC(C)C)NC)C(=O)NC(CC(N)=O)C(=O)NC5C(=O)NC3C(=O)NC(C(=O)NC(C(=O)O)c5cc(O)cc(O)c5-c5cc3ccc5O)C(OC3CC(C)(N)C(O)C(C)O3)c3ccc(cc3)O4)OC(CO)C(O)C2O)OC(C)C1O (stereo not drawn)	3797 S. aureus (GISA)	MIC 3797 S. aureus (GISA)	µg/mL	8
